Values compiled from patent US20150005307A1.

TEST_DESCRIPTION: physchem
EXPERIMENTAL_PARAMETERS: water
Counter-ions that a name gives are not always drawn.
RECORDED_METRIC: solubility

The measured solubility associated with CCCc1nc(C)c2c(=O)[nH]c(-c3cc(S(=O)(=O)N4CCN(CC)CC4)ccc3OCC)nn12 [Vardenafil (hydrochloride trihydrate), vardenafil hydrochloride trihydrate] reads ≥ 50 mg/mL
